meta.source: patent US20230295310A1

A collection of binders and their measured Kd
studySystem: T1, human CD3e/g (human, UniProt P07766 23-126; P09693 23-116)
T1 construct: Bought soluble protein; also called hCD3e/g; human CD3e/g (Acro CDD-C52W4)
T1 sequence (P07766 23-126, chain 1 of 2): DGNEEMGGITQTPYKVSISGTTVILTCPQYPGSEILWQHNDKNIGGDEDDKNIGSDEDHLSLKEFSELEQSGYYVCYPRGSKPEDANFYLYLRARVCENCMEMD
T1 sequence (P09693 23-116, chain 2 of 2): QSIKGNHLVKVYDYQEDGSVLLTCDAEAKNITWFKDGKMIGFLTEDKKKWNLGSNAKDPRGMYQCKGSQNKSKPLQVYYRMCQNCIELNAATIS
procedureDetails: SPR (Carterra LSA), mAb on chip
Entry rule: numbers only, all in nM.

[[record]]
binder = "mAb 97 (antibody, V domains shown, VH and VL only) VH: QGQLVESGGGVVQPGRSLRLSCAASGFTFRGYGMHWVRQAPGKGLEWVAIIYYDGKNKYYADSVKGRFTISRDNSKNTLYLQMNNLRVEDTAVYYCARGGGYNWFDPWGQGTLVTVSS VL: DIQMTQSPSSLSASIGDRVTITCRASQSISNYLNWYQQKPGKAPKLLIYSASSLQSGVPSRFSGSGSGTDFTLTISNLQPEDFAIYYCQRSYSPPFTFGPGTKLDIR"
quantityname = "Kd"
valueunit = "nM"
resultvalue = 17.8

[[record]]
binder = "mAb 73 (antibody, V domains shown, VH and VL only) VH: EVELVESGGGLVQPGRSLRLSCAASGFTFDDKVMHWVRQAPGKGLEWVSCINWNSGHIGYADSVKGRFTISRDNARTSLYLQMNSLRPEDTALYYCVREGNYDFWSGYYRGFFDLWGRGTLVTVSS VL: DIQMTQSPSSLSASVGDRVTITCRASQGIRNDLGWYQQKPGKAPKRLIYAASSLQGGVPSRFSGSGSGTEFTLTISSLQPEDFATYYCLQHTSYPFTFGQGTKLEIK"
quantityname = "Kd"
valueunit = "nM"
resultvalue = 16.2


# ---- query binder ----
Qu. Quick one: Kd for mAb 264 (antibody, V domains shown, VH and VL only) VH: EVQLLESGGGLVQPGGSLRLSCVASGFTFRSSSMTWVRQAPGKGLEWVSGIRGSGGRTYDAESVKGRFTISRDNSKNTLYLQMNSLRAEDTAEYYCAKLYDYYNDYMDVWGKGTTVTVSS VL: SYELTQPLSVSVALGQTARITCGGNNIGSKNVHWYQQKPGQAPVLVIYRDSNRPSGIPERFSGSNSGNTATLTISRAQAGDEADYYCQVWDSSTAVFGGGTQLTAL ?
Ans. 7.4
